Item-by-item account of Blackgrass plant response rating
System: blackgrass
method_summary: Test B pre/postemergence blackgrass
Format: in vivo, Alopecurus myosuroides
measurement_conditions: Rate 500 g/ha, Postemergence; scale 0 to 10
readout_name: Blackgrass plant response rating

INSERT INTO measurements (smiles_representation, result_value) VALUES
  ('CC(C)N(C(=O)n1oc(=O)n(CC=Cc2ccccc2)c1=O)c1ccc(F)cc1', 2),
  ('CC(C)N(C(=O)n1oc(=O)n([C@@H](C)c2ccccc2)c1=O)c1ccc(F)cc1', 5),
  ('CCOC(=O)C=CCn1c(=O)on(C(=O)N(c2ccc(F)cc2)C(C)C)c1=O', 5),
  ('Cc1nsc(C)c1-n1c(=O)on(C(=O)N(c2ccc(Cl)cc2)C(C)C)c1=O', 0),
  ('CC(C)N(C(=O)n1oc(=O)n(CC(=O)C(C)(C)C)c1=O)c1ccc(F)cc1', 8),
  ('COC(=O)Cn1c(=O)on(C(=O)N(c2ccc(F)cc2)C(C)C)c1=O', 5);

====

Tested on: surinam grass
method_summary: Test B pre/postemergence surinam grass
Type: in vivo, Brachiaria decumbens
measurement_conditions: Preemergence, Rate 62 g/ha; scale of 0 to 10 where 0 is no effect and 10 is complete control
// B. signalgrass plant response rating lookup, one value per entry
readout_name: B. signalgrass plant response rating

INSERT INTO results (molecule, readout_name, result_value) VALUES
  ('CC(C)N(C(=O)n1oc(=O)n(-c2ccc(OC(F)(F)F)cc2)c1=O)c1ccc(F)cc1 [Compound 202]', 'B. signalgrass plant response rating', 0),
  ('CCN(C(=O)n1oc(=O)n(Cc2ccco2)c1=O)C1CCCCC1 [Compound 312]', 'B. signalgrass plant response rating', 0),
  ('CC(C)=CCCC(C)=CCn1c(=O)on(C(=O)N(c2ccc(F)cc2)C(C)C)c1=O [Compound 262]', 'B. signalgrass plant response rating', 0),
  ('CC(C)N(C(=O)n1oc(=O)n([C@@H](C)c2ccccc2)c1=O)c1ccccc1 [Compound 168]', 'B. signalgrass plant response rating', 0),
  ('CC(C)N(C(=O)n1oc(=O)n(N(C)C)c1=O)c1ccc(F)cc1 [Compound 170]', 'B. signalgrass plant response rating', 2),
  ('CCOC(=O)C=CCn1c(=O)on(C(=O)N(c2ccc(F)cc2)C(C)C)c1=O [Compound 214]', 'B. signalgrass plant response rating', 0),
  ('C=CCn1c(=O)on(C(=O)N(c2ccc(F)cc2)C2CCCCCC2)c1=O [Compound 249]', 'B. signalgrass plant response rating', 0),
  ('COC(=O)Cn1c(=O)on(C(=O)N(c2ccc(F)cc2)C(C)C)c1=O [Compound 215]', 'B. signalgrass plant response rating', 0),
  ('CSCCn1c(=O)on(C(=O)N(c2ccc(F)cc2)C(C)C)c1=O [Compound 314]', 'B. signalgrass plant response rating', 0),
  ('CC(C)N(C(=O)n1oc(=O)n(CC(=O)C(C)(C)C)c1=O)c1ccc(F)cc1 [Compound 216]', 'B. signalgrass plant response rating', 0),
  ('CC(C)N(C(=O)n1oc(=O)n(C2CCCC2)c1=O)c1ccccc1 [Compound 283]', 'B. signalgrass plant response rating', 6),
  ('CC(C)N(C(=O)n1oc(=O)n(CC(C)(C)C)c1=O)c1ccc(F)cc1 [Compound 246]', 'B. signalgrass plant response rating', 0),
  ('CC(C)N(C(=O)n1oc(=O)n(CC=Cc2ccccc2)c1=O)c1ccc(F)cc1 [Compound 210]', 'B. signalgrass plant response rating', 0);

====

Test system: surinam grass
method_summary: Test B pre/postemergence surinam grass
Format: in vivo, Brachiaria decumbens
measurement_conditions: Preemergence, Rate 500 g/ha; scale 0 to 10, 0 is no effect, 10 is complete control
readout_name: B. signalgrass plant response rating

INSERT INTO assay_data (compound, result_value) VALUES
  ('CC(C)N(C(=O)n1oc(=O)n(CC(=O)N(C)C)c1=O)c1ccc(F)cc1F [Compound 440]', 8),
  ('CC(C)N(C(=O)n1oc(=O)n(CC2=NCCO2)c1=O)c1ccccc1 [Compound 495]', 0),
  ('CC(C)N(C(=O)n1oc(=O)n(CC2OCCO2)c1=O)c1ccc(F)cc1F [Compound 501]', 10),
  ('CC(C)C(=O)Cn1c(=O)on(C(=O)N(c2ccccc2)C(C)C)c1=O [Compound 485]', 8),
  ('C=CC(CC)n1c(=O)on(C(=O)N(c2ccccc2)C(C)C)c1=O (stereo not drawn) [Compound 455]', 9),
  ('COC(C)n1c(=O)on(C(=O)N(c2ccccc2)C(C)C)c1=O (stereo not drawn) [Compound 441]', 0);

====

Tested on: soybean
method_summary: Test B pre/postemergence soybean
Type: in vivo, Glycine max
measurement_conditions: Postemergence, Rate 125 g/ha; scale of 0 to 10 where 0 is no effect and 10 is complete control
Label MET when Plant response rating, Soybean is strictly below 1; at or above that, label NOT MET.

INSERT INTO results (smiles_representation, answer_label) VALUES
  ('CCCCn1c(=O)on(C(=O)N(c2ccc(F)cc2F)C(C)C)c1=O', 'NOT MET'),
  ('CC(C)N(C(=O)n1oc(=O)n(CC2=NOCCC2)c1=O)c1ccc(F)cc1F', 'NOT MET'),
  ('COCCn1c(=O)on(C(=O)N(c2ccccc2)C(C)C)c1=O', 'NOT MET'),
  ('CC(C)N(C(=O)n1oc(=O)n(CC(=O)C(F)(F)F)c1=O)c1ccc(F)cc1F', 'MET');

====

System: wheat
method_summary: Test B pre/postemergence wheat
Format: in vivo, Triticum aestivum
measurement_conditions: Postemergence, Rate 500 g/ha; scale 0 to 10, 0 is no effect, 10 is complete control
readout_name: Plant response rating, Wheat

INSERT INTO results (smiles_representation, result_value) VALUES
  ('CC(Cl)=CCn1c(=O)on(C(=O)N(c2ccc(F)cc2F)C(C)C)c1=O', 0),
  ('CC(C)N(C(=O)n1oc(=O)n(CC2OCCO2)c1=O)c1ccc(F)cc1F', 3),
  ('CCC=CCn1c(=O)on(C(=O)N(c2ccc(Cl)cc2)C(C)C)c1=O', 3),
  ('CC(C)N(C(=O)n1oc(=O)n(CCCCF)c1=O)c1ccc(Cl)cc1', 3);

====

System: giant foxtail
method_summary: Test B pre/postemergence giant foxtail
Assay type: in vivo, Setaria faberii
measurement_conditions: Preemergence, Rate 62 g/ha; scale of 0 to 10 where 0 is no effect and 10 is complete control
Giant foxtail plant response rating reference
readout_name: Giant foxtail plant response rating

INSERT INTO results (compound, readout_name, result_value) VALUES
  ('COC(=O)CCCn1c(=O)on(C(=O)N(c2ccc(F)cc2)C(C)C)c1=O', 'Giant foxtail plant response rating', 0),
  ('CC(C)N(C(=O)n1oc(=O)n(Cc2nnc(-c3ccccc3)o2)c1=O)c1ccccc1', 'Giant foxtail plant response rating', 0),
  ('CCCCc1ccc(N(C(=O)n2oc(=O)n(-c3ccccc3C)c2=O)C(C)C)cc1', 'Giant foxtail plant response rating', 0),
  ('CC(C)N(C(=O)n1oc(=O)n([C@@H](C)c2ccccc2)c1=O)c1ccc(Cl)cc1', 'Giant foxtail plant response rating', 8),
  ('CC1CCCCC1n1c(=O)on(C(=O)N(c2ccccc2)C(C)C)c1=O (centres unmarked)', 'Giant foxtail plant response rating', 7),
  ('C=C(Cn1c(=O)on(C(=O)N(c2ccc(F)cc2)C(C)C)c1=O)C(=O)OC', 'Giant foxtail plant response rating', 0),
  ('Cc1ccccc1N(C(=O)n1oc(=O)n(-c2ccccc2C)c1=O)C(C)C', 'Giant foxtail plant response rating', 7),
  ('Cc1ccccc1-n1c(=O)on(C(=O)N(c2ccc3c(c2)CCC3)C(C)C)c1=O', 'Giant foxtail plant response rating', 0),
  ('CC(C)N(C(=O)n1oc(=O)n(CCF)c1=O)c1ccc(Cl)cc1', 'Giant foxtail plant response rating', 9),
  ('CC(C)N(C(=O)n1oc(=O)n(-c2cccnc2)c1=O)c1ccc(F)cc1', 'Giant foxtail plant response rating', 0),
  ('CC(C)N(C(=O)n1oc(=O)n(CC(=O)C2CC2)c1=O)c1ccc(Cl)cc1', 'Giant foxtail plant response rating', 7),
  ('Cc1nsc(C)c1-n1c(=O)on(C(=O)N(c2ccc(Cl)cc2)C(C)C)c1=O', 'Giant foxtail plant response rating', 0),
  ('CCCCCn1c(=O)on(C(=O)N(c2ccc(F)cc2)C(C)C)c1=O', 'Giant foxtail plant response rating', 8),
  ('C=CCn1c(=O)on(C(=O)N(c2ccc(F)cc2)C2CCCCCC2)c1=O', 'Giant foxtail plant response rating', 0);

====

Tested on: wild oat
method_summary: Test B pre/postemergence wild oat
Format: in vivo, Avena fatua
measurement_conditions: Preemergence, Rate 125 g/ha; scale 0 to 10 (0 no effect, 10 complete control)
Entries annotated with measured Plant response rating, Wild oats
readout_name: Plant response rating, Wild oats

INSERT INTO measurements (smiles_representation, readout_name, result_value) VALUES
  ('Cc1cc(C)c(-n2c(=O)on(C(=O)N(c3ccc(Cl)cc3)C(C)C)c2=O)c(C)c1', 'Plant response rating, Wild oats', 0),
  ('CCN(Cc1ccccc1)C(=O)n1oc(=O)n(-c2c(C)cccc2C)c1=O', 'Plant response rating, Wild oats', 0),
  ('CC(C)N(C(=O)n1oc(=O)n(-c2ccccc2)c1=O)c1ccc(F)cc1', 'Plant response rating, Wild oats', 6),
  ('CC(C)N(C(=O)n1oc(=O)n(-c2cccc3c2CCCC3)c1=O)c1ccc(F)cc1', 'Plant response rating, Wild oats', 0),
  ('Cc1ccccc1-n1c(=O)on(C(=O)N(c2ccc(F)c(F)c2)C(C)C)c1=O', 'Plant response rating, Wild oats', 0),
  ('COc1ccccc1-n1c(=O)on(C(=O)N(c2ccc(F)cc2)C(C)C)c1=O', 'Plant response rating, Wild oats', 2);
